Assay: Acute toxicity (LD50), intravenous administration to mice
Settings: mouse, in vivo
Assignment: determine reported LD50 for the given compounds.

As a guide, the following entries are already answered.
N=C(N)Nc1ccc(C(=O)Oc2ccc(C(=O)N3CCN(CC(=O)N4CCCC4)CC3)cc2)cc1 ... 100 to 150 mg/kg
COc1cc(C(=O)N2CCN(C(C)C)CC2)cc(OC)c1OC(=O)c1ccc(NC(=N)N)cc1 ... 50 to 100 mg/kg
CC(C)N1CCN(C(=O)c2ccc(OC(=O)c3ccc(NC(=N)N)cc3)cc2)CC1 ... 50 to 100 mg/kg
CC(C)NC(=O)CN1CCN(C(=O)c2ccc(OC(=O)c3ccc(NC(=N)N)cc3)cc2)CC1 ... 150 to 200 mg/kg
N=C(N)Nc1ccc(C(=O)Oc2ccc(C(=O)N3CCN(CC(N)=O)CC3)cc2)cc1 ... 150 to 200 mg/kg
N=C(N)Nc1ccc(C(=O)Oc2ccc(C(=O)N3CCN(CC(=O)N4CCCCC4)CC3)cc2)cc1 ... 100 to 150 mg/kg
N=C(N)Nc1ccc(C(=O)Oc2ccc(C(=O)N3CCN(CC(=O)N4CCOCC4)CC3)cc2)cc1 ... 150 to 200 mg/kg
CCOC(=O)c1ccc(OC(=O)CCCCCNC(=N)N)cc1 [Reference compound B, reference compound] ... 313 mg/kg

Take each entry in turn and give its LD50.
1. CN(C)C(=O)COC(=O)Cc1ccc(OC(=O)c2ccc(NC(=N)N)cc2)cc1 [Reference compound A, reference compound]
2. CCOC(=O)CN1CCN(C(=O)c2ccc(OC(=O)c3ccc(NC(=N)N)cc3)cc2)CC1

1. 280 mg/kg
2. 150 to 200 mg/kg

Cited source for all entries: patent US4746737A
